Where do the numbers come from? From paper PMC3692431.

Biological target: A2A adenosine receptor (Rattus norvegicus)
Sequence (P30543 whole entry): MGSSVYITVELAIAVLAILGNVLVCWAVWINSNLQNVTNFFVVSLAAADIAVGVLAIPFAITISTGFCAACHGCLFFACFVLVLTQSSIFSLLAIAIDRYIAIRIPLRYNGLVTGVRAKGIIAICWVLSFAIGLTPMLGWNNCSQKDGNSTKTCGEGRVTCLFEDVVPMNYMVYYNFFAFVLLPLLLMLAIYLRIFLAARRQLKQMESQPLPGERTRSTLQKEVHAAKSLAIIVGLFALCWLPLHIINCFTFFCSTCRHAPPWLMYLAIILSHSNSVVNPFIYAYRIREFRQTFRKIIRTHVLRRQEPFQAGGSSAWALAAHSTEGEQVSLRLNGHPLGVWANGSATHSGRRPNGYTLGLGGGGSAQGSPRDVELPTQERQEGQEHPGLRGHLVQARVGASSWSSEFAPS
MEASUREMENT TYPE: Ki
Answer with the value and then the unit.

Which measured Ki value corresponds to `COc1cc(CNc2ncnc3c2ncn3[C@@H]2O[C@H](CO)[C@@H](O)[C@H]2O)ccc1O` ? 370 nM

###

Biological target: recombinant human adenosine A1 receptor (Homo sapiens, UniProt P30542)
Sequence (P30542 whole entry): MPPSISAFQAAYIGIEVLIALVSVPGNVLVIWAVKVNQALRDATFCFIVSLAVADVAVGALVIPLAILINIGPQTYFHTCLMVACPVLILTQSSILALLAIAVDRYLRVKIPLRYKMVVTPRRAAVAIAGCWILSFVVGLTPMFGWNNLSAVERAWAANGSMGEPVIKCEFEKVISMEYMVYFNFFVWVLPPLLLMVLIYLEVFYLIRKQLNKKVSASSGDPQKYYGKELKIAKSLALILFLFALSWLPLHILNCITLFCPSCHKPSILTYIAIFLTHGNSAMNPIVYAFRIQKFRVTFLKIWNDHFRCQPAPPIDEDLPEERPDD
Test: cAMP accumulation assay in CHO cells expressing A1 receptor
Settings: CHO cells stably expressing human A1 receptor; forskolin-stimulated cAMP; read-out: EC50, decrease of cellular cAMP level
MEASUREMENT TYPE: EC50 (nM)
One number for each entry, in nM.

Which measured EC50 value corresponds to COc1cc(CNc2ncnc3c2ncn3[C@@H]2O[C@H](CO)[C@@H](O)[C@H]2O)ccc1O [B2] ? 180
